Reported Fold change in kd values follow for various binders
# target.under.test: T1, HU-RAGE-SA (human, UniProt Q15109 23-342)
# T1 construct: extracellular domain; Directly immobilized on a CM5 chip (~100 RU); also called hRAGE-SA; soluble human streptavidin-tagged RAGE; not shown: streptavidin tag (SA)
# method.description: BIAcore kd against parental M4 scFv-Fc
Enter your answer as a number in fold; do not include the unit.

Below, each entry is followed by its recorded Fold change in kd result.
binder	property.name	observed.value
3B2 scFv-Fc fusion (Fc fusion, not shown: wild-type human IgG Fc (hinge and constant domains)) DIQMTQSPSSLSASVGDRVTITCRASQDVGIYVNWFQQKPGKAPRRLIYRATNLADGVPSRFSGSRSGTDFTLTISSLQPEDFATYYCLEFDEHPLTFGGGTKVEIKDGGGSGGGGSGGGGSSEVQLVESGGGLVQPGGSLRLSCAASGFTFNNYWMTWVRQAPGKGLEWVASIDNSGDNTYYPDSVKDRFTISRDNAKNSLYLQMNSLRAEDTAVYYCARGGDILVGLDYWGQGTLVTVSS	Fold change in kd	42.8
6B2 scFv-Fc fusion (Fc fusion, Substitutions derived from the printed HCDR3; not shown: wild-type human IgG Fc (hinge and constant domains)) DIQMTQSPSSLSASVGDRVTITCRASQDVGIYVNWFQQKPGKAPRRLIYRATNLADGVPSRFSGSRSGTDFTLTISSLQPEDFATYYCLEFDEHPLTFGGGTKVEIKDGGGSGGGGSGGGGSSEVQLVESGGGLVQPGGSLRLSCAASGFTFNNYWMTWVRQAPGKGLEWVASIDNSGDNTYYPDSVKDRFTISRDNAKNSLYLQMNSLRAEDTAVYYCARGGDIRVGLDVWGQGTLVTVSS	Fold change in kd	61

In the following, a different binder is considered.
Q. Bench note: what Fold change in kd did 3G5 scFv-Fc fusion (Fc fusion, Substitutions derived from the printed HCDR3; not shown: wild-type human IgG Fc (hinge and constant domains)) DIQMTQSPSSLSASVGDRVTITCRASQDVGIYVNWFQQKPGKAPRRLIYRATNLADGVPSRFSGSRSGTDFTLTISSLQPEDFATYYCLEFDEHPLTFGGGTKVEIKDGGGSGGGGSGGGGSSEVQLVESGGGLVQPGGSLRLSCAASGFTFNNYWMTWVRQAPGKGLEWVASIDNSGDNTYYPDSVKDRFTISRDNAKNSLYLQMNSLRAEDTAVYYCARGGDILDSLPYWGQGTLVTVSS show?
A. 65.1
